Parameter phosphorylation enrichment: see the listing below.
# Target desc: Hck (UniProt P08631)
# Sequence (P08631 whole entry, looked up): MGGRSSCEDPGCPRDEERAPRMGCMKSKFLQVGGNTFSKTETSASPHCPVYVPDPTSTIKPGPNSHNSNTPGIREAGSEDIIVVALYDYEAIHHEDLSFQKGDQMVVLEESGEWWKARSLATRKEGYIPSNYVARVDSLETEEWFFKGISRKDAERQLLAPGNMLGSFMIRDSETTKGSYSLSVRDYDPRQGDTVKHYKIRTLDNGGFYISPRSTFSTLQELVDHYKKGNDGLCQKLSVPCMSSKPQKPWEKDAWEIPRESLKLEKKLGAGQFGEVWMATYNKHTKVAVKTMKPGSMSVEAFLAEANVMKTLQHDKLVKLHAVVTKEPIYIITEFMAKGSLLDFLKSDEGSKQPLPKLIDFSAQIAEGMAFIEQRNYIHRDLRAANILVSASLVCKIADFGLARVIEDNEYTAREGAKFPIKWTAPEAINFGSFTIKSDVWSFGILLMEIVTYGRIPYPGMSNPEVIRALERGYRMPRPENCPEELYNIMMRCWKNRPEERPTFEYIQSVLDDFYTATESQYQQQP
# Measurement description: phosphorylation enrichment, bacterial display (enrichment ratio); higher = better substrate or ligand; peptides without Tyr show the background
Kindly provide the number alone.

# annotated cases, reported phosphorylation enrichment shown
Sequence code: LFLACYFIGGG [UBD_Y161_C162F]
Observed measurement: 0.55
//
Sequence code: RGYRVCYTPDS [PTPRF_Y450_Y450C]
Observed measurement: 0.618
//
Sequence code: PDGREYIFVDP [PDGFRA_Y572_H570R_YF]
Observed measurement: 0.647
//
Sequence code: TFHNTYHSQMR [IL1RAPL1_Y615]
Observed measurement: 0.434
//
Sequence code: IIWDSYTTNKM [GNB4_Y85]
Observed measurement: 0.506
//
Sequence code: SDVCMYRKNTF [SYNE2_Y570_I574T_YF]
Observed measurement: 0.456
//
Sequence code: GPGSGYTNIMR [PKLR_Y564_R559G]
Observed measurement: 0.444
//
Sequence code: WGLCSYYETSK [MAGED2_Y448_R446C]
Observed measurement: 0.58
//
Sequence code: GSIQQYTYKQE [PRG4_Y1271_I1272T]
Observed measurement: 0.483
//
Sequence code: VMIYAYLLHRG [PTEN_Y138_C136Y]
Observed measurement: 0.697

Ask: Record request: phosphorylation enrichment value, item LRNIDYFRLDG [ATRX_Y2083_YF]
Result: 1.63

Ask: Same again, this time with GPIFRYDSGGA [CYP11B1_Y81_L83S]
Result: 0.43

Ask: Same again, this time with LDPMVYMNDKS [PTK2B_Y834]
Result: 0.386

Ask: Same again, this time with DFLSSYSAVNQ [OAT_Y85]
Result: 0.531

---

# Target desc: Grb2 SH2 (UniProt P62993)
# Sequence (P62993 whole entry, looked up): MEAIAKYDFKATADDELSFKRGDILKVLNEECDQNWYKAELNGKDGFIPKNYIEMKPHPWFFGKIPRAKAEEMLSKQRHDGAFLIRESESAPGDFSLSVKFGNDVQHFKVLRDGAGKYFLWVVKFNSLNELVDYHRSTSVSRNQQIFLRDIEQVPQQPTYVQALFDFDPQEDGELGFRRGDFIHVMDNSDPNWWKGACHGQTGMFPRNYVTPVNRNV
# Measurement description: SH2 binding enrichment of the phosphorylated peptide, bacterial display (enrichment ratio); higher = better substrate or ligand; peptides without Tyr show the background
Property name: SH2 binding enrichment

# annotated cases, reported SH2 binding enrichment shown
Sequence code: DPHQQYFIAMD [TBX15_Y159_YF]
Observed measurement: 0.917
//
Sequence code: IHETTYNSIMK [ACTA1_Y281]
Observed measurement: 0.862
//
Sequence code: SLNAVYPKAGS [OAS3_Y376_R378K]
Observed measurement: 0.841
//
Sequence code: NDFGNYSNQSS [HNRNPA1_Y318_N319S]
Observed measurement: 0.795
//
Sequence code: ERLWVYGMSSS [F8_Y1728_D1727V]
Observed measurement: 0.872
//
Sequence code: SIKDKYVTALC [KCNH2_Y611_Y616C]
Observed measurement: 0.918

Consider now this further sequence.
Ask: Request body: readout SH2 binding enrichment, system Grb2 SH2 (UniProt P62993), query TNIKRYHIAKG [HARS1_Y150_V155G] . Return the value.
Result: 0.93

---

# Target desc: Grb2 SH2 (UniProt P62993)
# Measurement description: SH2 binding enrichment of the phosphorylated peptide, bacterial display (enrichment ratio); higher = better substrate or ligand; peptides without Tyr show the background
Property name: SH2 binding enrichment
Kindly provide the number alone.

Sequence code: DYYDLYGGEKK [PTPN11_Y66_F71K]
Observed measurement: 1.01

Sequence code: SQAPGYSFTAA [CYCS_Y47_G42S_YF]
Observed measurement: 0.701

Sequence code: QRRYVYYYSYL [PTEN_Y176]
Observed measurement: 1.07

Ask: Record request: SH2 binding enrichment value, item LAVVDYIRRQK [ATM_Y1915_M1916I]
Result: 0.441

Ask: Same again, this time with RELGEYGLQAY [ALDH2_Y497]
Result: 0.745

Ask: Same again, this time with DSDTDYGSGYP [RNASEH2A_Y206_L202S]
Result: 0.688

Ask: Same again, this time with GRLPEYNTRIA [CCDC151_Y542]
Result: 0.949

Ask: Same again, this time with IDSTPYRQWFE [RPS8_Y109_YF]
Result: 0.758

Ask: Same again, this time with KKHIPYRQHKS [CSNK1G2_Y206_E208Q]
Result: 2.07

Ask: Same again, this time with SSLEDYVRETN [GIMAP6_Y176_G171S]
Result: 0.899

---

# Target desc: MERTK (UniProt Q12866)
# Sequence (Q12866 whole entry, looked up): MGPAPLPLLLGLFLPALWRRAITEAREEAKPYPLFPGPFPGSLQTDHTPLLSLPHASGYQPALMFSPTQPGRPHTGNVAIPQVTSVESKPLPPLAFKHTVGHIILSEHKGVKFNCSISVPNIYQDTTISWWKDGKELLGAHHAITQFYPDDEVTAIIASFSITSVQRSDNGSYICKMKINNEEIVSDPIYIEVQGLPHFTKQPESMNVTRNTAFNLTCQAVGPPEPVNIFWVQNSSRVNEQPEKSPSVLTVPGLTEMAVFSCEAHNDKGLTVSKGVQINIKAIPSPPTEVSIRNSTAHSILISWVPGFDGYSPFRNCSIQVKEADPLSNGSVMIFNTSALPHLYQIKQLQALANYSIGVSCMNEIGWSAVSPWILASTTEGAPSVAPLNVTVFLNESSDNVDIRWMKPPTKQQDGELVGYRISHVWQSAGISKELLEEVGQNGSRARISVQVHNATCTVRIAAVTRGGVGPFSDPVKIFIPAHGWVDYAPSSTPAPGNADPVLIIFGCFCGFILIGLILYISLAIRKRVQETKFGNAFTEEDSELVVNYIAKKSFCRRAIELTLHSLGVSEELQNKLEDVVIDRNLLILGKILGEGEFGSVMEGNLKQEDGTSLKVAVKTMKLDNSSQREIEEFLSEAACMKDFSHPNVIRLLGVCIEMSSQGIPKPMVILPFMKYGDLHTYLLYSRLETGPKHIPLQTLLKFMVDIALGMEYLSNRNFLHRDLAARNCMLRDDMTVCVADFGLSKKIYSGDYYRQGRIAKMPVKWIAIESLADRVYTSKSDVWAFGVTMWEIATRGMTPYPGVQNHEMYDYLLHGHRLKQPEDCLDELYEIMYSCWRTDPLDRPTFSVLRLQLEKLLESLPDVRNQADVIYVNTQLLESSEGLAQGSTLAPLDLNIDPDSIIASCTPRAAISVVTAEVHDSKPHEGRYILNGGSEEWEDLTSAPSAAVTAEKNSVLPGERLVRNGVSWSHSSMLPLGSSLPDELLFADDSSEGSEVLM
# Measurement description: phosphorylation enrichment, bacterial display (enrichment ratio); higher = better substrate or ligand; peptides without Tyr show the background
Property name: phosphorylation enrichment
Kindly provide the number alone.

Sequence code: IHETTYNSIMK [ACTA1_Y281]
phosphorylation enrichment: 0.3
//
Sequence code: REGDKYVSHGA [ASS1_Y113_A111D]
phosphorylation enrichment: 0.744
//
Sequence code: LHAALYKRKLL [TTLL5_Y542_E543K]
phosphorylation enrichment: 0.502
//
Sequence code: HNLDFYKQTTN [FGFR3_Y648_K650Q_YF]
phosphorylation enrichment: 0.581
//
Sequence code: HHIDYYKKTTN [FGFR1_Y654]
phosphorylation enrichment: 0.663
//
Sequence code: AKKVFYMIETR [SHH_Y253_V254M]
phosphorylation enrichment: 0.386
//
Sequence code: VFLGAYDRFLP [SLC22A5_Y486_YF]
phosphorylation enrichment: 5.13
//
Sequence code: YRIGPYQPNVP [MATR3_Y784]
phosphorylation enrichment: 0.358

Consider now this further sequence.
Ask: Record request: phosphorylation enrichment value, item SPPILYSFYLN [FCRL6_Y239_D244N]
Result: 9.41

---

# System: Fer (mouse)
# Measurement description: phosphorylation enrichment, bacterial display (enrichment ratio); higher = better substrate or ligand; peptides without Tyr show the background
Would you please tag the item 1 when its phosphorylation enrichment is 0.5 or above, and 0 when it is below?

Record excerpt, results attached:
Sequence code: VVSMNYRVGAL [BCHE_Y174]
Target desc: Fer (mouse)
Class assignment: 0

Sequence code: LRYDSYWSYCN [SLC20A2_Y433_S434W]
Target desc: Fer (mouse)
Class assignment: 1

Sequence code: AFLQTYSHEVS [PCDHGA5_Y753]
Target desc: Fer (mouse)
Class assignment: 1

Sequence code: QNVADYMRYLM [RPL5_Y207]
Target desc: Fer (mouse)
Class assignment: 1

Sequence code: VEQIHYIGQNE [HMOX2_Y140_R137Q]
Target desc: Fer (mouse)
Class assignment: 0

Ask: Would you say FLKDVYVDSKD [NDUFAF4_Y69] shows phosphorylation enrichment at minimum 0.5?
Result: 1

Ask: Same again, this time with IRYPPYTDWNQ [ALDH3B2_Y365_H361R]
Result: 1

---

Parameter phosphorylation enrichment: see the listing below.
# Target desc: Fes (UniProt P07332)
# Sequence (P07332 whole entry, looked up): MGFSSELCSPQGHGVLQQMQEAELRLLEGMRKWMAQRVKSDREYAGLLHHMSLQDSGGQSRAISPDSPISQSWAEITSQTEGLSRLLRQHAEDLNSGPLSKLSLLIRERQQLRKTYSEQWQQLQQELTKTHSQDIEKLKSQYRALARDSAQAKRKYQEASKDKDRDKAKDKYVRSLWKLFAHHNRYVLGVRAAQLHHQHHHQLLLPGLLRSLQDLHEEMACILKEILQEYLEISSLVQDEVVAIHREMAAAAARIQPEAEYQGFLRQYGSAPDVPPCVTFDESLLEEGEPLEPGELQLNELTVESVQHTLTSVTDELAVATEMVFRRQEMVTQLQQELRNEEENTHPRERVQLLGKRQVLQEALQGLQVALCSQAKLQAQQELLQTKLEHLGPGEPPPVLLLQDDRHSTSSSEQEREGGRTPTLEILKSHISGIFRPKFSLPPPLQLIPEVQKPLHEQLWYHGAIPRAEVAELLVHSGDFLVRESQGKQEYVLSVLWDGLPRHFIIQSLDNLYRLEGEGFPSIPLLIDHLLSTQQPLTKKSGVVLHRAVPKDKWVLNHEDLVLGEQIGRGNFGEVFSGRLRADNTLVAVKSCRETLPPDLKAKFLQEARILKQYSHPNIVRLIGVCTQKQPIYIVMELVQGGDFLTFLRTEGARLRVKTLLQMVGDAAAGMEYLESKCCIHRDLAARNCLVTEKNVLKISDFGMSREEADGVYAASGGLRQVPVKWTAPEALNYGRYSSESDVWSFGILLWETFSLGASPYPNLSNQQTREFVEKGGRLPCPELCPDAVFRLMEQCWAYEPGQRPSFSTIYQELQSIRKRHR
# Measurement description: phosphorylation enrichment, bacterial display (enrichment ratio); higher = better substrate or ligand; peptides without Tyr show the background
Kindly provide the number alone.

# annotated cases, reported phosphorylation enrichment shown
Sequence code: SFDLDYDSVQP [MYC_Y16_N11S_YF]
Target desc: Fes (UniProt P07332)
Observed measurement: 1.31

Sequence code: MASISYDFCRV [BST2_Y6_T4I_YF]
Target desc: Fes (UniProt P07332)
Observed measurement: 1.17

Sequence code: KHGGNYVPAPK [OSCP1_Y237]
Target desc: Fes (UniProt P07332)
Observed measurement: 1.05

Ask: Record request: phosphorylation enrichment value, item LEIETYRRLLD [KRT12_Y429]
Result: 1.03

Ask: Same again, this time with SSPMKYQQNVS [EGFEM1P_Y160]
Result: 0.592

Ask: Same again, this time with GSTLSYFGLAT [P2RX7_Y343_A348T]
Result: 0.912

---

# Test system: Fer (mouse)
# Measurement description: phosphorylation enrichment, bacterial display (enrichment ratio); higher = better substrate or ligand; peptides without Tyr show the background
Parameter phosphorylation enrichment: see the listing below.

# annotated cases, reported phosphorylation enrichment shown
Sequence code: VHFARYLAMNK [HARS1_Y138_P134H]
phosphorylation enrichment: 0.44
--
Sequence code: DALDNYVVRGV [PCCA_Y473_I475V]
phosphorylation enrichment: 0.387
--
Sequence code: RLLRGYDQYAY [HLA-B_Y137_H137Y]
phosphorylation enrichment: 0.476
--
Sequence code: SVTCTYSPALK [TP53_Y126_N131K]
phosphorylation enrichment: 0.353
--
Sequence code: RLLVLYPWTQR [HBB_Y36_V35L]
phosphorylation enrichment: 0.594

Ask: Request body: readout phosphorylation enrichment, system Fer (mouse), query FAKTQYPDVFA [CRX_Y63_YF] . Return the value.
Result: 0.388

Ask: Same again, this time with LVMFIYDIFGM [SCN1A_Y1684_A1685D]
Result: 3.13

Ask: Same again, this time with ILTLKYLIEHG [ACTG1_Y69_P70L]
Result: 0.562

Ask: Same again, this time with FRIGPYQPNVP [MATR3_Y784_YF]
Result: 0.446

The origin of these recorded values is the supplement of paper PMC10065799.
